All values here come from BindingDB's records for doi:10.1016/j.bmc.2010.11.049.

assay: Inhibition of HIV1 YU2 gp120 binding to CD4 expressing Cf2Th-CD4/CCR5 cells assessed as inhibition of viral infection after 48 hrs
pIC50: −log10 of the molar value.
Let's look at some molecules and their measured pIC50.

q: Reported pIC50 for O=C(Nc1ccc(Cl)c(F)c1)C(=O)Nc1cccc2[nH]ncc12 : what is it?
a: < 4.00

q: Reported pIC50 for CC(NC(=O)C(=O)Nc1ccc(Cl)c(F)c1)C(c1ccccc1Cl)N1CCOCC1 (stereo not given) : what is it?
a: < 4.00

q: Reported pIC50 for CC1(C)CC(NC(=O)C(=O)Nc2c[nH]c3ncccc23)CC(C)(C)N1 : what is it?
a: < 4.00

q: Reported pIC50 for C[C@@H]1CCC[C@H](C)N1CCNC(=O)C(=O)Nc1ccc(Cl)c(F)c1 : what is it?
a: 4.12

q: Reported pIC50 for O=C(Nc1ccc(Br)cc1)c1cc(CN2CCCC2)on1 : what is it?
a: < 4.00

q: Reported pIC50 for O=C(NCc1ccccc1CN1CCOCC1)C(=O)Nc1ccc(Cl)c(F)c1 : what is it?
a: 4.69

q: Reported pIC50 for O=C(Nc1ccc(Cl)cc1)Nc1ncnc2nc[nH]c12 : what is it?
a: < 4.00

q: Reported pIC50 for CC1(C)C2CCC1(C)C(NC(=O)C(=O)Nc1ccc(Cl)c(F)c1)C2 (stereo not given) : what is it?
a: < 4.00

q: Reported pIC50 for COc1cc(NC(=O)C(=O)NC2CC(C)(C)NC(C)(C)C2)ccc1Cl : what is it?
a: < 4.00

q: Reported pIC50 for Cc1cc(SCC(=O)Nc2ccc(Cl)cc2)[nH]c(=O)n1 : what is it?
a: < 4.00
